system_name: T1, CD79b on the surface of B-cell non-Hodgkin's lymphoma cells (human, UniProt P40259 29-229)
T1 construct: whole, on cells; Endogenous CD79b of the cell lines; on cells it stands in the B cell receptor complex with CD79a; also called CD79b on Ramos cells; CD79b on BJAB cells
T1 sequence (looked up): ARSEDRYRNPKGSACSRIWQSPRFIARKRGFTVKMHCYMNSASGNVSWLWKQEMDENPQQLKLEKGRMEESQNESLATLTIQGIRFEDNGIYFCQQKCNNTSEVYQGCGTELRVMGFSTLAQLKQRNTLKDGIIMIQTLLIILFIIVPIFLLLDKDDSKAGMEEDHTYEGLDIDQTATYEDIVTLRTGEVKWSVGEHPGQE
protocol_text: flow cytometry on Ramos cells, goat anti-human IgG PE
measured_metric: EC50 (read off the curve)

Please review the following examples before continuing.
- binder: "A7v14b (antibody, V domains shown, also called CD79b.A7v14b) VH: EVQLVQSGAEVKKPGASVKVSCKASGYTFTTYYMNWVRQAPGQGLEWIGMIDPSDSETHYNQKFQGRATLTVDTSTSTAYLELSSLRSEDTAVYYCSRSLAFWGQGTLVTVSS VL: DIVMTQTPLSLPVTPGQPASISCKSSQSLLDSDGKTYLNWLLQKPGQSPQSLIYLVSKLDSGVPDRFSGSGSGTDFTLKISRVEAEDVGVYYCWQGTHFPQTFGQGTKVEIK"
  EC50 (read off the curve): "~4 nM"
- binder: "hz38D9B3.11 (antibody, V domains shown, Humanized monospecific anti-CD79b antibody) VH: QVQLVQSGSELKKPGASVKVSCKASGYTFTDYSMHWVRQAPGQGLEWMGWINTETGEPSYADDFKGRFVFSLDTSVSTAYLQISSLKAEDTAVYYCYYGPYWGQGTLVTVSS VL: EIVLTQSPATLSLSPGERATLSCKASQSVDHDVDSYMDWYQQKPGQAPRLLIYSASNLESGIPARFSGSGSGTDFTLTISSLEPEDFAVYYCQQINEYPYTFGGGTKVEIK"
  EC50 (read off the curve): "~2 nM"

Form: binder = hz34F1.14 (antibody, V domains shown) VH: QVQLVQSGAEVKKPGASVKVSCKASGYSFTTYWMNWVRQAPGQGLTWMGMIDPSDSETHYNHLFKDRVTMTVDKSTSTAYMELSSLRSEDTAVYYCTRAIGYWGQGTLVTVSS VL: DVVMTQSPLSLPVTLGQPASISCKSSLSLLDSEGKTYLNWFQQRPGQSPRPLISLVSKLDSGVPDRFSGSGSGTDFTLKISRVEAEDVGVYYCWQGTHFPLTFGGGTKVEIK ; EC50 (read off the curve) = ~20 nM

Form: binder = polmab (antibody, human IgG1, kappa, V domains shown) VH: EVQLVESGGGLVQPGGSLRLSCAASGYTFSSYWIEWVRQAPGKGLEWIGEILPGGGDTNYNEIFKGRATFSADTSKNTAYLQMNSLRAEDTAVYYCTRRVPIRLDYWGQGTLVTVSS VL: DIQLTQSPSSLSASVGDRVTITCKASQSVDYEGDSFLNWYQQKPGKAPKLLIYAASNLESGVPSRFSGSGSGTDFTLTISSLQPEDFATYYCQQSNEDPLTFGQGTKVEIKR ; EC50 (read off the curve) = ~3 nM
